Biological target: T1, UNK ZnF1-6 (called full-length) (human, UniProt Q9C0B0 30-357)
T1 sequence: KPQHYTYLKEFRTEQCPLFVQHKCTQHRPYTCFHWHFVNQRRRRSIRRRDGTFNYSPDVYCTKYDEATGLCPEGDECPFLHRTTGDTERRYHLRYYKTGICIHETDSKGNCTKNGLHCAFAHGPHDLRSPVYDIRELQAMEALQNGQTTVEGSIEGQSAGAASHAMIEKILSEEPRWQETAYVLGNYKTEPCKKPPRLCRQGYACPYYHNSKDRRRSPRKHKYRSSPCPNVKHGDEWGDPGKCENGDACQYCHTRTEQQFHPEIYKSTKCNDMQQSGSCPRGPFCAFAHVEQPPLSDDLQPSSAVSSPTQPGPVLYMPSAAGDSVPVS
Test: nsRBNS (natural sequence RNA bind-n-seq); RBNS binding buffer (assumed for nsRBNS): 25 mM Tris pH 7.5, 150 mM KCl, 3 mM MgCl2, 0.01% Triton X-100, 500 ug/ml BSA, 20 U/ml SUPERase-In, 4 C; UNK is unkempt and MSI1 is Musashi-1; names of the RNAs are library labels; protein concentration not given here; high values mean tight binding
In all, about 5,800 sequences were measured (“enrichment r”: median about 0.68, highest 2% from about 11 on). Only a sample is shown.
measured.metric: binding signal (enrichment R)

binder	value.unit	measured.value
ENSG00000198589:be:win_3901|CDS|ENSG00000198589|bound_else_gene|NA|bound_elsewhere_windowed (ssRNA) RNA: GGGAGUUCUACAGUCCGACGAUCUCUACUGUGUUUCGUAUUCCUGAGUUCAACUGGUCUCAGAUGCAUCAACGUUUGCUCACUGAUCUAUUAUUUUCAAUAGAAACAGAUAUACAGAUGUGGAGAAGCCAUUCAACAAAGACACAACAGAGGAUUGAGCAUCA	enrichment R	0.382
chr1:113590523:113590624:+|CDS|ENSG00000081026|unk|FALSE|unique (ssRNA) RNA: GGGAGUUCUACAGUCCGACGAUCUCAUCUGACUGGAUGAAGACUGUUCCAAGUUACAACCAAACAAAUAGCUCCAUGGACUUUAGAAAUUAUAUGAUGAGAGAUGAGACUCUGGAACCACUGCCCAAAAACUGGGAAAUGGCCCAACAGAGGAUUGAGCAUCA	enrichment R	1.15
chrX:149581652:149582231:-|three_prime_utr|ENSG00000267978|control|control|control (ssRNA) RNA: GGGAGUUCUACAGUCCGACGAUCCAAAUGUUCUUUUAAUGGUCAGUUUAAUGAACUUCACCAUCGAAGUUAAUGAAUGACAGUAGUCACACAUAUUGCUGUUUAUGUUAUUUAGGAGUAAGAUUCUUGCUUUUGAGUCACAUGCAACAGAGGAUUGAGCAUCA	enrichment R	0.441
ENSG00000124766:be:win_801|CDS|ENSG00000124766|bound_else_gene|NA|bound_elsewhere_windowed (ssRNA) RNA: GGGAGUUCUACAGUCCGACGAUCCUCGGCCUCCGCCUCCUCGGCAGCCUCGGCCUCCGCAGCGCUCGCGGCCCCGGGCAAGCACCUGGCGGAGAAGAAGGUGAAGCGCGUCUACCUGUUCGGCGGCCUGGGCACGUCGUCGUCCAACAGAGGAUUGAGCAUCA	enrichment R	0.655
